- test_details: chemical genetic growth profiling, strain panel (AID 1159580);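 further: tested at 20 µM; growth read once vehicle control cultures reached saturation at 30 °C; 1 = growth at the plate median or of vehicle wells; lower values mean less growth of the strain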
- condition_context: S. cerevisiae deletion strains, growth OD, locus YOR069W, strain VPS5
The whole screen tested about 5,500 compounds, of which about 2,000 (36%) were called active. Roughly 18% stayed inconclusive and do not appear here. No stated cut-off is given here; in the data, active means normalized growth mostly below about 0.91 (no sharp cut-off); inconclusive means no clear call, values can overlap the other calls; inactive means mostly above about 0.92. This is one part of the list.
Classes used: 1 for active, -1 for inactive

compound=Cn1cc[nH]c1=S group=-1
compound=CC(=C(CCOP(=O)(O)O)SC(=O)c1ccccc1)N(C=O)Cc1cnc(C)nc1N group=-1
compound=C[N+](C)(C)CC(=O)[O-] group=-1
compound="CN1Cc2c(ccc3c2OCO3)C2C(O)Cc3cc4c(cc3C21)OCO4 (stereo unspecified)" group=-1
compound=CC(C)N(C(=O)CCl)c1ccccc1 group=-1
compound="CC(=O)O[C@H]1C(=O)[C@@]2(C)C([C@H](OC(=O)c3ccccc3)[C@]3(O)C[C@H](OC(=O)[C@H](O)[C@@H](NC(=O)c4ccccc4)c4ccccc4)C(C)=C1C3(C)C)[C@]1(OC(C)=O)CO[C@@H]1C[C@@H]2O (stereo partly specified)" group=-1
compound="CN1CCc2cc3c(cc2C1O)OCO3 (stereo unspecified)" group=-1
compound=c1ccc(CN(CC2=NCCN2)c2ccccc2)cc1 group=-1
compound=OCc1ccccc1O[C@@H]1O[C@H](CO)[C@@H](O)[C@H](O)[C@H]1O group=-1
compound=COC(=O)c1c(Cl)c(Cl)c(C(=O)OC)c(Cl)c1Cl group=-1
compound=COC(=O)COc1ccc(Cl)cc1Cl group=-1
compound=C=CCc1ccc2c(c1)OCO2 group=-1
compound="COc1ccc2c(c1)C1(C)CCC(=O)CC1CC2 (stereo unspecified)" group=-1
compound=Cc1ccc2c(c1)CC[C@H]1CC(=O)CC[C@]21C group=-1
compound="O[C@H]1C=C2CCN3Cc4cc5c(cc4C(C23)[C@@H]1O)OCO5 (stereo partly specified)" group=1
compound=Nc1nc2[nH]c(=O)c(=O)[nH]c2c(=O)[nH]1 group=-1
compound=CC(C)[N+](C)(CCOC(=O)C1c2ccccc2Oc2ccccc21)C(C)C group=-1
compound=Oc1ccc(O)cc1 group=-1
compound=C/C=C(/C(=C/C)c1ccc(O)cc1)c1ccc(O)cc1 group=1
compound="CNC1(C)C2CCC(C2)C1(C)C (stereo unspecified)" group=-1
compound=CCN(CC)C(=S)SSC(=S)N(CC)CC group=1
compound="OCC(O)Cc1ccc2c(c1)OCO2 (stereo unspecified)" group=-1
compound=COC(=O)COc1cc(Cl)c(Cl)cc1Cl group=-1
compound=Cc1ccc(O)cc1 group=-1
compound=CC(=O)OCC(CCn1cnc2cnc(N)nc21)COC(C)=O group=-1
compound="CC(C)CC1C(=O)N2CCC[C@H]2C2(O)O[C@](NC(=O)C3C=C4c5cccc6[nH]c(Br)c(c56)C[C@H]4N(C)C3)(C(C)C)C(=O)N12 (stereo partly specified)" group=-1
